# System name: immobilized lactase (lactase derived from Aspergillus oryzae) (Aspergillus oryzae, UniProt Q2UCU3)
# Construct: host or cells: Aspergillus oryzae
# Sequence (Q2UCU3 19-1005): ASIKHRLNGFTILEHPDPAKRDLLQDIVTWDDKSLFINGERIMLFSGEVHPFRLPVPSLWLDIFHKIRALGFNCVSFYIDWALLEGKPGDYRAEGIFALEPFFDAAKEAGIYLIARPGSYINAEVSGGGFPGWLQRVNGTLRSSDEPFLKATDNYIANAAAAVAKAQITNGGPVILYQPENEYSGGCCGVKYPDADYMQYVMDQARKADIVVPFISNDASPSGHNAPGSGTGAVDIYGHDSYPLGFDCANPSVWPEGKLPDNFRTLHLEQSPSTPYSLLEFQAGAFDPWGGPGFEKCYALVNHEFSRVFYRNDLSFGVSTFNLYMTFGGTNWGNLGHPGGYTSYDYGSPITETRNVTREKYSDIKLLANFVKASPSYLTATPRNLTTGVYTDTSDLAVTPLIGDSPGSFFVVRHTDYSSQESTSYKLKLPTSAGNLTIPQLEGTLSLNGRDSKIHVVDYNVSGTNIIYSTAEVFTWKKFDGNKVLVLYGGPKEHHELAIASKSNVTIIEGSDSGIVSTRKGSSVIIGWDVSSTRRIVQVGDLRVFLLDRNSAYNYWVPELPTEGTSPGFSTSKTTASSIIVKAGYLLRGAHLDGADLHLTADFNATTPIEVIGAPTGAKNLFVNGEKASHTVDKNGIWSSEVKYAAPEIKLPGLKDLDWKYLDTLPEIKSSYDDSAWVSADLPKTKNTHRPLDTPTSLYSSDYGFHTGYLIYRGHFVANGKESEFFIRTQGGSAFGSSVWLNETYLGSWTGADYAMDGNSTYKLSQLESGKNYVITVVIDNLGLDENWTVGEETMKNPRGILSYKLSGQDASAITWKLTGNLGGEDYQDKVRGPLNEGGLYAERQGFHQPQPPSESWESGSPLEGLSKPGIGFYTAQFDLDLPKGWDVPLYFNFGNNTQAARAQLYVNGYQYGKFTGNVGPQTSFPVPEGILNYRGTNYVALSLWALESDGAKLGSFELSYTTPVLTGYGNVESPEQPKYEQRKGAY
# Measurement notes: Residual enzyme activity of immobilized lactase after immersion in disinfectant solutions
# Type: biochemical
# Test conditions: 720 h; chemical 1%; 18°-20° C.; relative to 860 ILU/g-IML before immersion; read-out: Residual enzyme activity (relative ratio, %) after immersion for 30 days

{"Molecule": "C/C=C/C=C/C(=O)[O-].[K+] [Potassium sorbate]", "Scale unit": "%", "remaining activity at 1 %": 101}
{"Molecule": "O=C(O)CC(O)C(=O)O (centres unmarked)", "Scale unit": "%", "remaining activity at 1 %": 100}
{"Molecule": "O=CCCCC=O", "Scale unit": "%", "remaining activity at 1 %": 98}
{"Molecule": "CC(=O)O", "Scale unit": "%", "remaining activity at 1 %": 100}
{"Molecule": "CC(O)C(=O)O (centres unmarked)", "Scale unit": "%", "remaining activity at 1 %": 101}
